Overview of recorded TGI for various molecules
tested on: OVCAR-3 ovarian; test: NCI tumour cell line growth inhibition, 48 h
readout: TGI

- molecule: "COc1cc(/C=C/C=C2\\CCC/C(=C\\C=C\\c3ccc(O)c(OC)c3)C2=O)ccc1O"
  result: "> 100 µM"
- molecule: "CCc1nc(-n2c(CC)nc3ccccc3c2=O)nc(N)c1-c1ccc(Cl)cc1"
  result: "> 100 µM"
- molecule: "CC1(C(=O)NCCN(CCNC(=O)C2(C)CC3(C)CC(C)(C2)C(=O)NC3=O)CCNC(=O)C2(C)CC3(C)CC(C)(C2)C(=O)NC3=O)CC2(C)CC(C)(C1)C(=O)NC2=O (stereo not drawn)"
  result: "> 100 µM"

* * *

Overview of recorded TGI for various compounds
system: NCI-H522 lung; assay: NCI tumour cell line growth inhibition, 48 h

- compound: "N#Cc1c(N)c2c(c(-c3ccccc3)c1-c1ccccc1)C(=O)N(Nc1ccccc1)C2=O"
  TGI: "> 100 µM"
- compound: "CC1C(/C=C/c2ccoc2)ON2CCCC12 (stereo not drawn)"
  TGI: "> 100 µM"
- compound: "Nc1c(S(=O)(=O)O)cc(Nc2cccc(S(N)(=O)=O)c2)c2c1C(=O)c1ccccc1C2=O"
  TGI: "> 100 µM"
- compound: "COc1cccc(CCn2c(N)c(C(=O)O)c3ccc([N+](=O)[O-])cc3c2=O)c1"
  TGI: "75.8 µM"
- compound: "c1ccc(CCCC2Sc3cccc4cccc(c34)S2)cc1"
  TGI: "> 100 µM"
- compound: "Cc1cc2c(=O)cc(-c3ccc(C(F)(F)F)cc3)oc2c(C(=O)O)c1C"
  TGI: "> 100 µM"
- compound: "c1ccc(CN2CCCN3CCN(CCCN(Cc4ccccc4)CC3)CC2)cc1"
  TGI: "> 100 µM"
- compound: "CCOC(=O)C1(Br)C(c2ccccc2)NC(=O)N(C2OC(COC(=O)c3ccccc3)C(OC(=O)c3ccccc3)C2OC(=O)c2ccccc2)C1(C)Br (stereo not drawn)"
  TGI: "20.3 µM"
- compound: "CCN=C=NCCCN(C)C"
  TGI: "> 100 µM"
- compound: "CC(C)Oc1c(C2(c3ccccc3O)SCCCS2)c(=O)c1=O"
  TGI: "58.9 µM"
- compound: "Nc1ccc(C(=O)NN2C(=O)C(Cl)C2c2cc(Br)cc(Br)c2O)cc1 (stereo not drawn)"
  TGI: "> 100 µM"
- compound: "CSc1c(S(C)=O)[nH]c2cc(Br)cc(Br)c12 (stereo not drawn)"
  TGI: "55.5 µM"
- compound: "CCOC(=O)NC(Nc1ccc(F)c(F)c1)(C(=O)OCC)C(F)(F)F (stereo not drawn)"
  TGI: "> 100 µM"

* * *

tested on: 786-0 renal; experiment: NCI tumour cell line growth inhibition, 48 h
Overview of recorded TGI for various molecules
readout: TGI

- molecule: "O=C(O)CC(C(=O)O)C1c2ccccc2-c2ccccc21 (stereo not given)"
  result: "> 100 µM"
- molecule: "CCCCNC(=O)OCC(COc1ccccc1OC)OC(=O)NCCCC (stereo not given)"
  result: "> 100 µM"
- molecule: "NC(=S)N/N=C1\\C(=O)N(CCc2ccccc2)C(=O)C1C(=O)NCCc1ccccc1 (stereo not given)"
  result: "> 100 µM"
- molecule: "CCOC(=O)CCC(NC(=O)c1ccc(Nc2cnc3cc(C(F)(F)F)ccc3n2)cc1)C(=O)OCC (stereo not given)"
  result: "> 66.8 µM"
- molecule: "CCN=C=NCCCN(C)C"
  result: "> 100 µM"
- molecule: "CC(=O)Nc1ccc(-c2nc3ccccc3s2)cc1Cl"
  result: "> 100 µM"
- molecule: "Cc1cc(Cl)ccc1NC(=O)C(=O)Cc1ccc([N+](=O)[O-])c([N+](=O)[O-])c1CC(=O)C(=O)Nc1ccc(Cl)cc1C"
  result: "> 100 µM"
- molecule: "CCN(CC)CCOc1ccc(N2Cc3ccccc3C2=O)cc1"
  result: "> 10 µM"
- molecule: "CC(=O)/C(N=Nc1ccc(-n2c(C)nc3ccc(Br)cc3c2=O)cc1)=C(/C)O"
  result: "> 100 µM"
- molecule: "CC(C)c1cccc(C(C)C)c1NC(=O)C(=O)CC(=O)CC(c1ccccc1)c1c(O)c2ccccc2oc1=O (stereo not given)"
  result: "> 100 µM"
- molecule: "C=C1C(=O)CCC1C(=O)O (stereo not given)"
  result: "> 100 µM"
- molecule: "COc1ccc(N2CCN(CN3CCN(c4ccc(OC)cc4)C3)C2)cc1"
  result: "> 100 µM"
- molecule: "Nc1ccc(C(=O)NN2C(=O)C(Cl)C2c2cc(Br)cc(Br)c2O)cc1 (stereo not given)"
  result: "> 100 µM"
- molecule: "CC(C)(O)/C=C\\P(C)(=O)c1ccccc1 (stereo not given)"
  result: "> 100 µM"
- molecule: "Cc1ccc(/C=N/NS(=O)(=O)c2ccccc2)cc1"
  result: "> 100 µM"
- molecule: "CCCCC1C(=O)N(c2ccc(S(=O)(=O)Nc3ccccn3)cc2)N(c2ccc(O)c(C(=O)O)c2)C1=O (stereo not given)"
  result: "> 100 µM"
- molecule: "COc1ccc2c(O)c(/C=C3\\N=Nc4ncccc43)oc2c1C[C@H]1CCNC[C@H]1F"
  result: "1.61 µM"
- molecule: "CN1C(=O)N(C)C2C1NN=c1s/c(=C\\c3c[nH]c4ccccc34)c(=O)n12 (stereo not given)"
  result: "> 100 µM"
- molecule: "C=CCOc1ccc(C2(c3ccc(OCC=C)cc3)C(=O)Nc3ccccc32)cc1"
  result: "> 10 µM"
- molecule: "CCN1CCC2(CC1)NC(=O)c1c(c3ccc(Cl)c(Cl)c3n1C)C2C#N (stereo not given)"
  result: "3.13 µM"
- molecule: "CCCC(=O)OCC1(CO)C/C(=C/CC(C(C)C)C(C)C)C(=O)O1 (stereo not given)"
  result: "> 100 µM"
- molecule: "COc1cc(/C=C/C(=O)NC[C@]2(O)CCC3C4CCc5cc(O)ccc5C4CCC32C)ccc1O (stereo not given in full)"
  result: "45.7 µM"
- molecule: "COc1cc(C(C#N)NNC(=O)Cc2ccccc2)cc(OC)c1OC (stereo not given)"
  result: "> 100 µM"
- molecule: "O=Nc1ccc(O)c2ncccc12"
  result: "14.7 µM"
- molecule: "CC(NC1=NCCO1)c1cccs1 (stereo not given)"
  result: "36.6 µM"
- molecule: "COc1cccc2c1nc1cccc(OC)c1[n+]2[O-]"
  result: "15 µM"
- molecule: "COc1ccc([C@@H]2CC(=O)NCCCNCCCCNCCCN2)cc1"
  result: "> 100 µM"
- molecule: "COc1cccc2c1C(=O)c1c(O)c3c(c(O)c1C2=O)C[C@@](O)(C(=O)CO)C[C@@H]3OC1CC(OC(C)=O)C(OC(C)=O)C(C)O1 (stereo not given in full)"
  result: "1.41 µM"
- molecule: "CN(C)Cc1cc(C(=O)/C=C/c2ccc(Br)cc2)cc(CN(C)C)c1O"
  result: "19 µM"
- molecule: "CN(C)CCn1c(=O)oc2cc(C(=O)CN3CCOCC3)ccc21"
  result: "> 100 µM"
